system.name: pooled human IgG (human)
procedure.summary: cell-based or functional assay
Lab note: cut-off is 30 ng/µL. Strictly less in Enzyme Activity Endpoint Assay (purified): Fc is Yes. Exactly 30 ng/µL or more is No.

The following binders have reported results that may help.
# binder, category
measured = [
    ("PRT-211 (enzyme) MEVVEVWPYGQNPNGKTEILSQTEDSESLQRLRDIEDFQAEKKKQGVVYTKWLDGVDVDDHDFRKIVDGNIAYYATPLLNGKGFYDINKDFNRDSDKCAAAVAANMFHYWLDQNRDNVDRFLRQNPEKHGIIELPDGQLKLSDFLNTYESDNGYRDKSKLFDFISNNFNGPVWTDKLLDNYINGYAYNYKYGRTIEDPTKNTSKINFFKDVFNEKILTNIHSIRNYNTFSNLLSEALYTGKAIGLSYGPAGLRHSLGHIISVWGADLDEDGNVVAIYVTDSDDKKLTIGDERVGLKRYKISTDDEGRARLTAYEENDNTGGEIRGLWTLDTGKQAWADYFDKTEQTGTDQAEQLEHHHHHH", "No"),
    ("PRT-213 (enzyme) MEVVEVWPYGQNPNGKTEILSQTEDSESLQRLRDIEDFQAEKKKEGVVYTKWLDGVTVKDHDFRKIVDGNIEYYATPLLNGRGWYDINKDFNRDSDKCAAAVAANMFHYWLDRNRDNVDRFLKQNPEKHGIIELPDGQLKLSDFLNTYESDNGYRDKSKLFDFISKNFNGPVWTDKLLDNYINGYGYNYKYGRTIEDPTKNTSKINFFKKVFNEKILTDIHSIRNQNEFSDLLSEALYTGKAIGLSYGPAGLRHSLGHIISVWGADFDEDGNVVAIYVTDSDDKKLTIGDERVGLKRYKVSTDDEGRARLTAYTETDNTGGQVRGLYTLDTGTQAWADYFDKTEQTGTDQAEQLEHHHHHH", "No"),
    ("PRT-226 (enzyme) MEVVEVWPYGQNPNGKTEILSQTEDSESLQRLRDIEDFQAEKKKQNVVYTKWLDGVDVDDHDFRKIVDGNTEYYATPLLNGRGFYDINKDFNRDSDKCAAAVAANMFHYWLDRNRDNVDRFLRQNPEKHGIIELPDGQLKLSDFLNTYESDHGYRDKSKLFDFISNNFNGPVWTNKLLDNYINGYGYNYKYGRTIEDPTKNTSKINFFKEVFNEKILTNNHSIRNQNEFSVLLSEALYTGKAIGLSYGPAGLRHSLGHIISVWGADLDADGNVVAIYVTDSDDKKLTIGDERVGLKRYKISTDDEGRARLTAYEETDNTGGQIRGLWTLDTGKQAWADYFDKTEQTGTDQAEQLEHHHHHH", "Yes"),
    ("PRT-225 (enzyme) MEVVEVWPYGQNPNGKTEILSQTEDSESLQRLRDIEDFQAEKKKENVVYTKWLDGVDVKDHDFRKIVDGNIEYYATPLLNGRGFYDINKDFNRDSDKCAAAVAANMFHYWLDINRDNVDRFLRQNPEKHGIIELPDGQLKLSDFLNTYESDHGYRDKSKLFDFISNNFNGPVWTDKLLDNYINGYAYNYKYGRTIEDPTKNTSKINFFKEVFNEKILTNNHSIRNQNEFSVLLSEALYTGKAIGLSYGPAGLRHSLGHIISVWGADLDADGNVVAIYVTDSDDKKLTIGDERVGLKRYKISTDDENRARLTAYEETDNTGGQIRGLWTLDTGKQAWADYFDKTEQTGTDQAEQLEHHHHHH", "No"),
    ("PRT-212 (enzyme) MEVVEVWPYGQNPNGKTEILSQTEDSESLQRLRDIEDFQAEKKKEGVVYTKWLDGVDVKDHDFRKIVDGNIEYYATPLLNGRGFYDINKDFNQDSDKCAAAVAANMFHYWLDRNRDNVDRFLSQNPEKHGIIELPDGQLKLSDFLNTYESDDGYRDKSKLFDLISNNFNGPVWTDKLLDNYINGYAYNYKYGRTIEDPTKNTSKINFFKEVFNEKILTNIHSIRNQNEFSDKLSEALYTGKAIGLSYGPAGLRHSLGHIISVWGADLDEDGNVVAIYVTDSDDKKLTIGDERVGLKRYKVSTDDEGRLRLTAYEETDNTGGEIRGIWTLDTGKQAWADYFDKTEQTGTDQAEQLEHHHHHH", "No"),
]

input: Record PRT-206 (enzyme) MEVVEVWPYGQNPNGKTEILSQTEDSESLQRLRDIEDFQAEKKKENVVYTKWLDGVTVKDHDFRKIVDGNIAYYATPLLNGRGFYDINKDFNRDSDKCAAAVAANMFHYWLDINRDNVDRFLRQNPEKHGIIELPDGQLKLSDFLNTYESDDGYRDKSKLFDFISNNFNGPVWTDKLLDNYINGYGYNYKYGRTIEDPTKNTSKINFFKEVFNEKILTDNHSIRDQNEFSDLLSEALYTGKAIGLSYGPAGLRHSLGHIISVWGADLDADGNVVAIYVTDSDDKKLTIGDERVGLKRYKISYDDEGRARLTAYEEKDNTGGQIRGLYTLDTGKQAWADYFDKTEQTGTDQAEQLEHHHHHH : is its Enzyme Activity Endpoint Assay (purified): Fc strictly below 30 ng/µL?
output: Yes

input: Record PRT-196 (enzyme) MEVVEVWPYGQNPNGKTEILSQTEDSESLQRLRDIEDFQAEKKMQNVVYTKWLDGVDVKDHDFRKIVDGNIAYYATPLLNGRGFYDINKDFNRDSDKCAAAVAANMFHYWLDINRDNVDRFLRQNPEKHGIIELPDGQLKLSDFLNTYESDHGYRDKSKLFDFISNNFNGPVWTDKLLDNYINGYAYNYKYGRTIEDPTKNTSKINFFKEVFNEKILTNNHSIRNQNEFSVLLSEALYTGKAIGLSYGPAGLRHSLGHIISVWGADLDADGNVVAIYVTDSDDKKLTIGDERVGLKRYKISTDDENRLRLTAYEETHNTGGQIRGLWTLDTGKYAWADYFDKTEQTGTDQAEQLEHHHHHH : is its Enzyme Activity Endpoint Assay (purified): Fc strictly below 30 ng/µL?
output: No

input: Record PRT-214 (enzyme) MEVVEVWPYGQNPNGKTEILSQTEDSESLQRLRDIEDFQAEKKKEGVVYTKWLDGVDVDDHDFRKITDGDIEYYATPLLNGRGFYDINKDFNRDSDKCAAAVAANMFHYWLDRNRDNVDRFLKQNPEKHGIIELPDGQLKLSDFLNTYESDYGYRDKSKLFDFISNNFNGPVWTDKLLDNYINGYAYNYKYGRTIEDPTKNTSKINFFKEVFDEKLLTNNHSIRNYNEFSELLREALYTGKAIGLSYGPAGLRHSLGHIISVWGADLDEDGNVVAIYVTDSDDKKLTIGDERVGLKRYKVSSDDENRARLTAYEEKDNTGGEIRGLYTLDTGKQAWADYFDKTEQTGTDQAEQLEHHHHHH : is its Enzyme Activity Endpoint Assay (purified): Fc strictly below 30 ng/µL?
output: Yes
